Values compiled from paper PMC11982978.

System Under Test: ERK2 WT (Mus musculus)
Construct: His6; made in house; host or cells: E. coli BL21(DE3), co-expressed with GST-MEK1ΔN3
Experiment: Competitive peptide kinase assay (D-peptide inhibition), ERK2 WT
Assay type: biochemical
Measurement Parameters: Table S1, 5 μM reporter peptide, 10 nM ERK2, 10 μM ATP, three independent experiments
Peptide text beside a SMILES is read from it.
Parameter Measured: IC50 (µM)

CC(C)C[C@H](NC(=O)[C@@H](NC(=O)[C@H](CC(C)C)NC(=O)[C@H](CO)NC(=O)[C@@H](NC(=O)[C@H](CC(N)=O)NC(=O)[C@H](CO)NC(=O)CNC(=O)[C@H](CCCNC(=N)N)NC(=O)[C@H](CCCNC(=N)N)NC(=O)[C@H](CCC(=O)O)NC(=O)[C@H](CCC(N)=O)NC(=O)[C@H](CC(C)C)NC(=O)CNC(=O)[C@H](C)NC(=O)[C@@H](N)Cc1ccc(O)cc1)C(C)C)[C@@H](C)O)C(=O)O [PTPN5] (H-YAGLQERRGSNVSLTL-OH) = 42
CC(C)C[C@H](NC(=O)CNC(=O)[C@H](CCCNC(=N)N)NC(=O)[C@H](CCCNC(=N)N)NC(=O)[C@H](C)NC(=O)[C@H](CS)NC(=O)[C@H](CC(C)C)NC(=O)[C@H](C)NC(=O)[C@@H](N)Cc1ccc(O)cc1)C(=O)N[C@@H](Cc1ccc(O)cc1)C(=O)N[C@@H](CS)C(=O)N[C@@H](CC(C)C)C(=O)N[C@@H](CO)C(=O)N[C@@H](CC(C)C)C(=O)N[C@@H](CC(=O)O)C(=O)N[C@@H](Cc1c[nH]cn1)C(=O)O = 92
CC[C@H](C)[C@H](NC(=O)[C@H](C)NC(=O)[C@@H](N)Cc1ccc(O)cc1)C(=O)N[C@@H](CCCCN)C(=O)NCC(=O)N[C@@H](CCCCN)C(=O)N[C@@H](CCCNC(=N)N)C(=O)N[C@@H](CCCNC(=N)N)C(=O)N[C@@H](CCCNC(=N)N)C(=O)N[C@@H](CCCCN)C(=O)N[C@@H](CCCCN)C(=O)N[C@@H](CC(C)C)C(=O)N[C@H](C(=O)N[C@@H](CC(C)C)C(=O)N[C@@H](C)C(=O)N[C@@H](CCCCN)C(=O)O)[C@@H](C)CC [ZBED6] (H-YAIKGKRRRKKLILAK-OH) = 6.8
CC(C)C[C@H](NC(=O)[C@H](CC(=O)O)NC(=O)[C@H](CCCNC(=N)N)NC(=O)[C@@H]1CCCN1C(=O)[C@H](CCCCN)NC(=O)[C@H](CCCNC(=N)N)NC(=O)CNC(=O)[C@H](CCCCN)NC(=O)[C@H](C)NC(=O)[C@@H](N)Cc1ccc(O)cc1)C(=O)N[C@@H](CCC(=O)O)C(=O)N[C@@H](CC(C)C)C(=O)N1CCC[C@H]1C(=O)N[C@@H](CC(C)C)C(=O)N[C@@H](CO)C(=O)N1CCC[C@H]1C(=O)O [ELK1] (H-YAKGRKPRDLELPLSP-OH) = 35
CC(C)C[C@H](NC(=O)[C@H](C)NC(=O)[C@@H](N)Cc1ccc(O)cc1)C(=O)N[C@@H](CCC(N)=O)C(=O)N[C@@H](CCC(N)=O)C(=O)N[C@@H](CCCNC(=N)N)C(=O)N[C@@H](CCCNC(=N)N)C(=O)N[C@@H](CC(C)C)C(=O)N[C@@H](CCC(N)=O)C(=O)N[C@@H](Cc1c[nH]cn1)C(=O)N[C@@H](CCCNC(=N)N)C(=O)N[C@@H](CC(C)C)C(=O)N[C@@H](CCCNC(=N)N)C(=O)N[C@@H](CC(C)C)C(=O)N[C@@H](CCCNC(=N)N)C(=O)N[C@@H](C)C(=O)O [AEBP1] (H-YALQQRRLQHRLRLRA-OH) = 16

* * *

compounds and their reported pIC50
System Under Test: ERK2 E322K (Mus musculus, UniProt P63085, E320K)
Construct: His6; made in house; host or cells: E. coli BL21(DE3), co-expressed with GST-MEK1ΔN3
Sequence (P63085 whole entry E320K): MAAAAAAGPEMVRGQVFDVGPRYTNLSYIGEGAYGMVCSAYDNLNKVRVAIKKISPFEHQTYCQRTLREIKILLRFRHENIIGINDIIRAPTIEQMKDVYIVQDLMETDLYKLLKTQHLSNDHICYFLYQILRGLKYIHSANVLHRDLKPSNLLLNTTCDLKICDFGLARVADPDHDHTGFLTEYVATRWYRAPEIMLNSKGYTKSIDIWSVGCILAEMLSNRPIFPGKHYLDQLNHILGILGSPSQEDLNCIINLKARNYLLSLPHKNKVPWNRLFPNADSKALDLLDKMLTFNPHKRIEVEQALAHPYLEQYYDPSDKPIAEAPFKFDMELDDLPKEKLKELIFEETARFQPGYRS
Experiment: Competitive peptide kinase assay (D-peptide inhibition), ERK2 E322K
Format: biochemical
Measurement Parameters: Table S1, 5 μM reporter peptide, 10 nM ERK2, 10 μM ATP, three independent experiments
pIC50: −log10 of the molar value. Peptide text beside a SMILES is read from it.
Parameter Measured: pIC50

CC[C@H](C)[C@H](NC(=O)[C@@H](NC(=O)[C@H](CC(C)C)NC(=O)[C@H](C)NC(=O)[C@@H]1CCCN1C(=O)[C@H](CC(C)C)NC(=O)[C@@H](NC(=O)[C@@H]1CCCN1C(=O)[C@H](CCCCN)NC(=O)[C@H](CCCNC(=N)N)NC(=O)[C@H](CCCNC(=N)N)NC(=O)[C@H](C)NC(=O)[C@H](C)NC(=O)[C@@H](N)Cc1ccc(O)cc1)C(C)C)[C@@H](C)O)C(=O)N[C@@H](CC(N)=O)C(=O)N1CCC[C@H]1C(=O)O [MAP2K2] (H-YAARRKPVLPALTINP-OH) = 4.39
CC(C)C[C@H](NC(=O)[C@H](C)NC(=O)[C@@H](N)Cc1ccc(O)cc1)C(=O)N[C@@H](CCC(N)=O)C(=O)N[C@@H](CCC(N)=O)C(=O)N[C@@H](CCCNC(=N)N)C(=O)N[C@@H](CCCNC(=N)N)C(=O)N[C@@H](CC(C)C)C(=O)N[C@@H](CCC(N)=O)C(=O)N[C@@H](Cc1c[nH]cn1)C(=O)N[C@@H](CCCNC(=N)N)C(=O)N[C@@H](CC(C)C)C(=O)N[C@@H](CCCNC(=N)N)C(=O)N[C@@H](CC(C)C)C(=O)N[C@@H](CCCNC(=N)N)C(=O)N[C@@H](C)C(=O)O [AEBP1] (H-YALQQRRLQHRLRLRA-OH) = 3.80

* * *

Listed next: entries and their corresponding IC50.
System Under Test: ERK2 WT (Mus musculus, UniProt P63085)
Construct: His6; made in house; host or cells: E. coli BL21(DE3), co-expressed with GST-MEK1ΔN3
Sequence (P63085 whole entry): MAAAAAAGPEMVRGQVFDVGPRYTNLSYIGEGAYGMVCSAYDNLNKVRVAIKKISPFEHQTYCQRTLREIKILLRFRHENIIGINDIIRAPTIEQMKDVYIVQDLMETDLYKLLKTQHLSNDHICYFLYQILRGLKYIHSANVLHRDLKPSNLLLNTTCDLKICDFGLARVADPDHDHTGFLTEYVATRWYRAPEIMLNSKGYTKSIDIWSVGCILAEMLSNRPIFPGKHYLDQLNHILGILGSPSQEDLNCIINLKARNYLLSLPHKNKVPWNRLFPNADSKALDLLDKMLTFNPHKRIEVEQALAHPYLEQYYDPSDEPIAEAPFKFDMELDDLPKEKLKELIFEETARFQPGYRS
Experiment: Competitive peptide kinase assay (D-peptide inhibition), ERK2 WT
Assay type: biochemical
Measurement Parameters: Table 2, 5 μM D-site dependent reporter peptide, 10 nM ERK2, 10 μM ATP, pH 7.4, fluorescence, mean of three independent replicates
Peptide text beside a SMILES is read from it.
Parameter Measured: IC50

CC[C@H](C)[C@H](NC(=O)[C@H](CCCNC(=N)N)NC(=O)[C@H](C)NC(=O)[C@@H](N)Cc1ccc(O)cc1)C(=O)N[C@@H](C)C(=O)N[C@@H](CCCNC(=N)N)C(=O)N[C@@H](CCCNC(=N)N)C(=O)NCC(=O)N[C@@H](CC(C)C)C(=O)N1CCC[C@H]1C(=O)N[C@@H](CCCNC(=N)N)C(=O)N[C@@H](CC(C)C)C(=O)N[C@@H](C)C(=O)N[C@H](C(=O)N[C@@H](CO)C(=O)N[C@@H](CC(=O)O)C(=O)O)C(C)C [ISG20 peptide I1R/R2I] = 200 µM
CC[C@H](C)[C@H](NC(=O)[C@H](C)NC(=O)[C@@H](N)Cc1ccc(O)cc1)C(=O)N[C@@H](CCCNC(=N)N)C(=O)N[C@@H](C)C(=O)N[C@@H](CCCNC(=N)N)C(=O)N[C@@H](CCCNC(=N)N)C(=O)NCC(=O)NCC(=O)N[C@@H](CC(C)C)C(=O)N1CCC[C@H]1C(=O)N[C@@H](CCCNC(=N)N)C(=O)N[C@@H](CC(C)C)C(=O)N[C@@H](C)C(=O)N[C@H](C(=O)N[C@@H](CO)C(=O)N[C@@H](CC(=O)O)C(=O)O)C(C)C [ISG20 peptide G7+] (H-YAIRARRGGLPRLAVSD-OH) = 75 µM

* * *

Item-by-item account of pIC50
System Under Test: ERK2 R133K (Mus musculus, UniProt P63085, R133K)
Construct: His6; made in house; host or cells: E. coli BL21(DE3), co-expressed with GST-MEK1ΔN3
Sequence (P63085 whole entry R133K): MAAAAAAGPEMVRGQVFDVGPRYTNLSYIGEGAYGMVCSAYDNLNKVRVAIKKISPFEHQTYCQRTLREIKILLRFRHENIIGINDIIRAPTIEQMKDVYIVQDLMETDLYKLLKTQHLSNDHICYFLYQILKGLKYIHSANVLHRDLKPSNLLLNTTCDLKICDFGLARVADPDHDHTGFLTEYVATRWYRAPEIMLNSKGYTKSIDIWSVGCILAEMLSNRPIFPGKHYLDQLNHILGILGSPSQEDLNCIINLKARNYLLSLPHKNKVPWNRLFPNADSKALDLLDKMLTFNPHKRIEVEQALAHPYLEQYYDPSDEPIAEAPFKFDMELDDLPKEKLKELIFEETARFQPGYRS
Experiment: Competitive peptide kinase assay (D-peptide inhibition), ERK2 R133K
Assay type: biochemical
Measurement Parameters: Table S1, 5 μM reporter peptide, 10 nM ERK2, 10 μM ATP, three independent experiments
pIC50: −log10 of the molar value. Peptide text beside a SMILES is read from it.
Parameter Measured: pIC50

CC(C)C[C@H](NC(=O)CNC(=O)[C@H](CCCCN)NC(=O)[C@H](Cc1ccccc1)NC(=O)[C@H](CC(N)=O)NC(=O)[C@H](CCCCN)NC(=O)[C@H](Cc1c[nH]c2ccccc12)NC(=O)[C@H](CCCCN)NC(=O)[C@@H]1CCCN1C(=O)[C@H](CO)NC(=O)[C@H](C)NC(=O)[C@@H](N)Cc1ccc(O)cc1)C(=O)N[C@@H](CCCCN)C(=O)N[C@@H](CC(C)C)C(=O)N[C@@H](CC(C)C)C(=O)N[C@@H](CS)C(=O)O [MLXIPL] (H-YASPKWKNFKGLKLLC-OH) = 4.64
CC(C)C[C@H](NC(=O)[C@H](CC(=O)O)NC(=O)[C@H](CCCNC(=N)N)NC(=O)[C@@H]1CCCN1C(=O)[C@H](CCCCN)NC(=O)[C@H](CCCNC(=N)N)NC(=O)CNC(=O)[C@H](CCCCN)NC(=O)[C@H](C)NC(=O)[C@@H](N)Cc1ccc(O)cc1)C(=O)N[C@@H](CCC(=O)O)C(=O)N[C@@H](CC(C)C)C(=O)N1CCC[C@H]1C(=O)N[C@@H](CC(C)C)C(=O)N[C@@H](CO)C(=O)N1CCC[C@H]1C(=O)O [ELK1] (H-YAKGRKPRDLELPLSP-OH) = 4.24
